biological target: Kinase A and Spo0F (Bacillus subtilis, UniProt P16497); construct: made in house; host or cells: recombinant E. coli; assay: Autophosphorylation of Kinase A and Transphosphorylation of Spo0F Assay (HPK in vitro assay); format: biochemical; conditions: Table 2, KinA/Spo0F phosphorylation, in µM
Measured IC50, listed per entry.
Lab note: record just the number, no unit beside it.

Guide cases for IC50, answers given:
CCOC(=O)c1ccc(Oc2ccc(-c3nc4ccc(C(=N)N)cc4[nH]3)cc2)cc1 [Example 52]; 56
N=C(N)c1ccc2[nH]c(-c3ccc(Oc4ccc(Cl)c(Cl)c4)cc3)nc2c1 [Example 60]; 11.4
COc1ccc(Oc2ccc(-c3nc4ccc(C(=N)N)cc4[nH]3)cc2)cc1 [Example 54]; 17.7
N=C(N)c1ccc2[nH]c(-c3ccc(Oc4ccc(Cl)cc4)cc3)nc2c1 [Example 59]; 13.9
N=C(N)c1ccc2nc(-c3ccc(Oc4ccc(N)cc4)cc3)[nH]c2c1 [Example 51]; 140.6
N=C(N)c1ccc2nc(-c3ccc(Oc4ccc(Cl)cc4[N+](=O)[O-])cc3)[nH]c2c1 [Example 49]; 29.2
COc1cc(Oc2ccc(-c3nc4ccc(C(=N)N)cc4[nH]3)cc2)cc(OC)c1OC [Example 53]; 28.7

// IC50 value for CC(C)(C)c1ccc(Oc2ccc(-c3nc4ccc(C(=N)N)cc4[nH]3)cc2)cc1 [Example 56] : 66.5

---

Biological target: Kinase A and Spo0F (Bacillus subtilis, UniProt P16497)
Construct: made in house; host or cells: recombinant E. coli
Sequence (P16497 1-606): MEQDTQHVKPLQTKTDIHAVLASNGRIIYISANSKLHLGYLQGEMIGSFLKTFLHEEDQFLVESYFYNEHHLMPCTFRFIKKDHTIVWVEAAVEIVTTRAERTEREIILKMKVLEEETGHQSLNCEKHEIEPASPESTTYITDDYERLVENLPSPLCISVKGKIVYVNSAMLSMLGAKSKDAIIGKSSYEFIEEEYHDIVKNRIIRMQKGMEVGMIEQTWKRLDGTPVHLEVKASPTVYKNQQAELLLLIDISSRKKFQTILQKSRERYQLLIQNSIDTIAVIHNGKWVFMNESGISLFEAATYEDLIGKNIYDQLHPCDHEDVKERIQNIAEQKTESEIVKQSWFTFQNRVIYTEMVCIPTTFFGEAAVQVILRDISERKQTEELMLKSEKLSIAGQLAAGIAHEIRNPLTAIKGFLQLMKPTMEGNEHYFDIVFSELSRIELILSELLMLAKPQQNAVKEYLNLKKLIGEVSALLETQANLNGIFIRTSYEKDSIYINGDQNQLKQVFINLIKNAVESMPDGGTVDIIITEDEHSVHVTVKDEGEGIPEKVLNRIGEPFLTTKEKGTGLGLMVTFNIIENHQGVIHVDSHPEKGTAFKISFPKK
Assay: Autophosphorylation of Kinase A and Transphosphorylation of Spo0F Assay (HPK in vitro assay)
Format: biochemical
Settings: Table 4, KinA/Spo0F phosphorylation, read-out: IC50
One threshold, 100 µM, splits the recorded IC50 values: lower ones are Yes, equal or higher ones are No.

Field: example entries. Status: answers known.
N=C(N)c1ccc2nc(-c3ccc4ccccc4c3O)[nH]c2c1; No
N=C(N)c1ccc2nc(-c3cc4c5c(c3)CCCN5CCC4)[nH]c2c1; Yes
N=C(N)c1ccc2nc(-c3ccc4c(c3)Cc3ccccc3-4)[nH]c2c1; Yes
CCn1c2ccccc2c2ccc(-c3nc4ccc(C(=N)N)cc4[nH]3)cc21; Yes
N=C(N)c1ccc2nc(-c3ccc4oc5ccccc5c4c3)[nH]c2c1; Yes

# input Lab note: confirm whether the reported IC50 for this compound is below 100 µM, equality not counting. compound: CN1c2ccccc2C(C)(C)C12C=Cc1cc(-c3nc4ccc(C(=N)N)cc4[nH]3)ccc1O2 (centres unmarked)
# output No

# input Lab note: confirm whether the reported IC50 for this compound is below 100 µM, equality not counting. compound: N=C(N)c1ccc2nc(-c3ccc4ccccc4c3)[nH]c2c1
# output No

# input Lab note: confirm whether the reported IC50 for this compound is below 100 µM, equality not counting. compound: N=C(N)c1ccc2nc(-c3cc4c5c(c3O)CCCN5CCC4)[nH]c2c1
# output Yes

---

target: Kinase A and Spo0F (Bacillus subtilis, UniProt P16497); construct: made in house; host or cells: recombinant E. coli; experiment: Autophosphorylation of Kinase A and Transphosphorylation of Spo0F Assay (HPK in vitro assay); format: biochemical; conditions: Table 2, KinA/Spo0F phosphorylation, read-out: IC50
endpoint.name: pIC50
pIC50 (log units): -log10 of the concentration in mol/L.

// pIC50 value for N=C(N)c1ccc2nc(-c3ccc(Oc4ccccc4)cc3)[nH]c2c1 : 4.38

---

target: Kinase A and Spo0F (Bacillus subtilis, UniProt P16497); construct: made in house; host or cells: recombinant E. coli; experiment: Autophosphorylation of Kinase A and Transphosphorylation of Spo0F Assay (HPK in vitro assay); assay type: biochemical; conditions: Table 1, KinA/Spo0F phosphorylation, in µM
endpoint.name: IC50
Lab note: record just the number, no unit beside it.

Guide cases for IC50, answers given:
N=C(N)c1ccc2nc(-c3ccc(NCc4ccccc4)cc3)[nH]c2c1 [Example 22]; 222
N=C(N)c1ccc2nc(-c3cc(Br)cc(Br)c3O)[nH]c2c1 [Example 32]; 51.1
N=C(N)c1ccc2nc(-c3cc(I)cc(I)c3O)[nH]c2c1 [Example 31]; 30.8
N=C(N)c1ccc2nc(-c3cc(-c4ccccc4)cc(-c4ccccc4)c3O)[nH]c2c1 [Example 39]; 23
N=C(N)c1ccc2nc(-c3cc(C(F)(F)F)cc(C(F)(F)F)c3)[nH]c2c1 [Example 7]; 30.8

// IC50 value for COc1cc(Br)c(O)c(-c2nc3ccc(C(=N)N)cc3[nH]2)c1 [Example 37] : 171

// IC50 value for N=C(N)c1ccc2nc(-c3cc(OCc4ccccc4)cc(OCc4ccccc4)c3)[nH]c2c1 [Example 6] : 15.9

// IC50 value for N=C(N)c1ccc2nc(-c3ccc(OCc4ccccc4)c(OCc4ccccc4)c3)[nH]c2c1 [Example 16] : 50.7

// IC50 value for N=C(N)c1ccc2nc(-c3ccc(OCc4ccccc4)cc3)[nH]c2c1 [Example 15] : 60.8

---

Measured IC50, listed per entry.
Target: Kinase A and Spo0F (Bacillus subtilis)
Construct: made in house; host or cells: recombinant E. coli
Sequence (P16497 1-606): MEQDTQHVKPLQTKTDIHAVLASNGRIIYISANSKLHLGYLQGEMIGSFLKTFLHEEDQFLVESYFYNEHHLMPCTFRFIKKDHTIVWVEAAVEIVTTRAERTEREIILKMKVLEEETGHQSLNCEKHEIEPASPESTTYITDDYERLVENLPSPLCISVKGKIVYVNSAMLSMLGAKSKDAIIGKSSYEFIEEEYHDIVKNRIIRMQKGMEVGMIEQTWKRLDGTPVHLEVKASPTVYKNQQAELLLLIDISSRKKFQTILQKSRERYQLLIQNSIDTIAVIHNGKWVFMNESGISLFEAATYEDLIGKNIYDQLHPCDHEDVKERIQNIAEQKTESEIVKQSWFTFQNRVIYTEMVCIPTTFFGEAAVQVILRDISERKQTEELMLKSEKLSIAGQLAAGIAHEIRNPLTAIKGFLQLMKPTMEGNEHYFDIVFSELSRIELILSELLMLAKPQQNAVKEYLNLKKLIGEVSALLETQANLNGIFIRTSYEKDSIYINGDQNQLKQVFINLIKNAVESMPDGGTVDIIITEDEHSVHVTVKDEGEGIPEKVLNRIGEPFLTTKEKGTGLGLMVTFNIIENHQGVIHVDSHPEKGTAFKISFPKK
Experiment: Autophosphorylation of Kinase A and Transphosphorylation of Spo0F Assay (HPK in vitro assay)
Format: biochemical
Settings: Table 1, KinA/Spo0F phosphorylation, in µM

N=C(N)c1ccc2nc(-c3ccc(F)cc3)[nH]c2c1; 480
CC(C)(C)c1cc(-c2nc3ccc(C(=N)N)cc3[nH]2)ccc1O; 22
N=C(N)c1ccc2nc(-c3ccc(Oc4c([N+](=O)[O-])cc(C(F)(F)F)cc4[N+](=O)[O-])cc3)[nH]c2c1; 28
CC(C)(C)c1cccc(-c2nc3ccc(C(=N)N)cc3[nH]2)c1O; 4
N=C(N)c1ccc2nc(-c3ccc(N(c4ccccc4)c4ccccc4)cc3)[nH]c2c1; 17.4

// IC50 value for N=C(N)c1ccc2nc(-c3cc(I)c(O)c(I)c3)[nH]c2c1 : 254

// IC50 value for N=C(N)c1ccc2nc(-c3cc([N+](=O)[O-])cc([N+](=O)[O-])c3O)[nH]c2c1 : 74.7

// IC50 value for CC(C)(C)c1csc(-c2ccc(-c3nc4ccc(C(=N)N)cc4[nH]3)cc2)n1 : 40.2

Data origin, for the record: patent US5942532A
